- system-under-test: recombinant ERO1A (Mus musculus, UniProt Q8R180)
- Construct: GST-SMT3-mouse ERO1A (residues 43–464); GST-SMT3 (GST-SUMO) (N, cleaved yes); made in house; host or cells: E. coli Rosetta DE3 (Novagen)
- Sequence (Q8R180 43-464): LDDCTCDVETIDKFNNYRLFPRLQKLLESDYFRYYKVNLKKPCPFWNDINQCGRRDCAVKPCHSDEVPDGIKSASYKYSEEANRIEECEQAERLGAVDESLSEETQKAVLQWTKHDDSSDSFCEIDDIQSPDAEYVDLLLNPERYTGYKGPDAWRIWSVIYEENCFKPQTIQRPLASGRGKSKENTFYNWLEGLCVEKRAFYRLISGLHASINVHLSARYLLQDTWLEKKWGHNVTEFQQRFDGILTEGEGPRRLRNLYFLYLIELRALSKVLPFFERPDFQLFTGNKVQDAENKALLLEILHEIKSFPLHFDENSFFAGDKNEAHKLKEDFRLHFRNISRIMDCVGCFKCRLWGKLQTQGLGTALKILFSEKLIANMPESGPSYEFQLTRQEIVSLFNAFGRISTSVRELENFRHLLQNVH
- test-description: AUR-based kinetic assay of ERO1A activity (recombinant ERO1A and PDIA1, HRP, Amplex Ultra Red)
- Format: biochemical
- assay-context: compounds dissolved in DMSO
outcome-measure: ERO1 inhibitory activity (in words)

Q. Please give measured ERO1 inhibitory activity (in words) of the following entry: `O=C(O)c1cc(N2N=C(C(F)(F)F)/C(=C\c3ccc(-c4ccc(F)cc4)o3)C2=O)ccc1Cl`
A. loss of activity

Q. Please give measured ERO1 inhibitory activity (in words) of the following entry: `COc1cccc(-c2ccc(/C=C3/C(=O)N(c4ccc(Cl)c(C(=O)O)c4)N=C3C(F)(F)F)o2)c1`
A. loss of activity

Taken from paper PMC13198932.
